- Tested on: MDA-MB-435 melanoma
- test: NCI-60 one-dose screen, 48 h
- condition-info: 10 µM
The panel holds about 83,000 compounds, 20% with a hit somewhere; the sample as a whole holds those more often. Active and inactive are the calls of the source. The calls were made as follows: active = growth percent below 10; inactive = the rest.
Response enum: active, inactive

Some solved cases for reference:
[[record]]
compound = "O=C(Nc1cccc(F)c1)Nc1cccc(Cl)c1"
assay_target = "MDA-MB-435 melanoma"
assigned_class = "inactive"

[[record]]
compound = "COc1cc(/C=C/C(=O)c2cc(-c3ccccc3)ccc2O)cc(OC)c1OC"
assay_target = "MDA-MB-435 melanoma"
assigned_class = "inactive"

[[record]]
compound = "CC1=CSC2=NC(c3ccc(Cl)c(Cl)c3)=CC(c3ccc(Cl)cc3)N12 (stereo not given)"
assay_target = "MDA-MB-435 melanoma"
assigned_class = "inactive"

[[record]]
compound = "CS(=O)(=O)Nc1ccc([N+](=O)[O-])cc1Oc1ccccc1"
assay_target = "MDA-MB-435 melanoma"
assigned_class = "inactive"


Then there is this compound:
What is the recorded call for this compound in the test? `O=C(Nc1cccc(-c2nc3ccccc3[nH]2)c1)c1cccc(NC(=O)c2ccco2)c1` active

* * *

- Test system: MOLT-4 leukemia
- test: NCI-60 one-dose screen, 48 h
- condition-info: 10 µM
- Method: Growth inhibition of the MOLT-4 human tumor cell line is measured as a screen for anti-cancer activity. Cells are grown in 96 well plates and exposed to the test compound for 48 hours. Compounds are tested at a single concentration, which is 10^-5 M for most compounds. The reported endpoint is percent growth (GI% or GIPRCNT), where numbers from 0 - 100% represent growth inhibition, and numbers from -100% - 0 represent cell death. For example, a value of 40 represents 60% growth inhibition. […]
The panel holds about 83,000 compounds, 20% with a hit somewhere; the sample as a whole holds those more often. The source made the active and inactive calls. How the source made its calls: active means growth percent below 10; inactive means the rest.
Response enum: yes (active), no (inactive)

[[record]]
molecule = "C=CCn1ccc(=O)nc1SC"
assigned_class = "no"

[[record]]
molecule = "CCCCCCCCCCCCCCCCn1cc[n+](C)c1"
assigned_class = "no"

[[record]]
molecule = "CCCCN(CCCC)c1ccc(C(=NC(C)CCCN(CC)CC)c2ccc(N(C)C)cc2)cc1 (stereo not given)"
assigned_class = "yes"

[[record]]
molecule = "COc1ccc(-c2n/c(=C\\c3c(O)[nH]c4ccccc34)cc3c2=Nc2ccccc2-3)cc1"
assigned_class = "yes"

[[record]]
molecule = "COC(=O)C1(C(=O)OC)C2C(=O)C3C(C21)C3(C(=O)OC(C)(C)C)C(=O)OC(C)(C)C (stereo not given)"
assigned_class = "no"

[[record]]
molecule = "COc1cc(CSc2nc3ccc(Cl)cc3c(=O)n2Cc2ccccc2)cc(OC)c1OC"
assigned_class = "no"


Then there is this molecule:
What is the recorded call for this molecule in the test? `C#Cc1ccc(-n2c(/C=C/c3cc(OC)c(OC)c(OC)c3)nc3ncccc3c2=O)cc1` no

* * *

- System: DU-145 prostate
- test: NCI-60 one-dose screen, 48 h (100 = growth as untreated, 0 = no growth, -100 = all killed)
- condition-info: 10 µM
This is part of a sample that, as a whole, favours compounds with a hit. Of some 83,000 tested, about 20% had one in any assay.
outcome-measure: growth (%)
API: value field is a number in %; no unit string.

[[record]]
molecule = "O=C(COc1ccc(Cl)cc1Cl)Oc1coc(CSc2nc3ccccc3s2)cc1=O"
outcome_measure = "growth"
assay_value = 106


Lab note: measured growth of `CC(=O)c1ccc(NCn2nc(-c3ccc(Cl)cc3)oc2=S)cc1` was 109

Lab note: measured growth of `Cc1ccc2nc3[nH]c(=O)[nH]c(=O)c3c(N)c2c1` was 77.2
